- Assay System: HEK cells stably transfected with tetracycline inducible hNR1 and hNR2A (Homo sapiens (Human), UniProt Q05586+Q12879)
- Sequence (Q12879 23-1464, other chains not shown): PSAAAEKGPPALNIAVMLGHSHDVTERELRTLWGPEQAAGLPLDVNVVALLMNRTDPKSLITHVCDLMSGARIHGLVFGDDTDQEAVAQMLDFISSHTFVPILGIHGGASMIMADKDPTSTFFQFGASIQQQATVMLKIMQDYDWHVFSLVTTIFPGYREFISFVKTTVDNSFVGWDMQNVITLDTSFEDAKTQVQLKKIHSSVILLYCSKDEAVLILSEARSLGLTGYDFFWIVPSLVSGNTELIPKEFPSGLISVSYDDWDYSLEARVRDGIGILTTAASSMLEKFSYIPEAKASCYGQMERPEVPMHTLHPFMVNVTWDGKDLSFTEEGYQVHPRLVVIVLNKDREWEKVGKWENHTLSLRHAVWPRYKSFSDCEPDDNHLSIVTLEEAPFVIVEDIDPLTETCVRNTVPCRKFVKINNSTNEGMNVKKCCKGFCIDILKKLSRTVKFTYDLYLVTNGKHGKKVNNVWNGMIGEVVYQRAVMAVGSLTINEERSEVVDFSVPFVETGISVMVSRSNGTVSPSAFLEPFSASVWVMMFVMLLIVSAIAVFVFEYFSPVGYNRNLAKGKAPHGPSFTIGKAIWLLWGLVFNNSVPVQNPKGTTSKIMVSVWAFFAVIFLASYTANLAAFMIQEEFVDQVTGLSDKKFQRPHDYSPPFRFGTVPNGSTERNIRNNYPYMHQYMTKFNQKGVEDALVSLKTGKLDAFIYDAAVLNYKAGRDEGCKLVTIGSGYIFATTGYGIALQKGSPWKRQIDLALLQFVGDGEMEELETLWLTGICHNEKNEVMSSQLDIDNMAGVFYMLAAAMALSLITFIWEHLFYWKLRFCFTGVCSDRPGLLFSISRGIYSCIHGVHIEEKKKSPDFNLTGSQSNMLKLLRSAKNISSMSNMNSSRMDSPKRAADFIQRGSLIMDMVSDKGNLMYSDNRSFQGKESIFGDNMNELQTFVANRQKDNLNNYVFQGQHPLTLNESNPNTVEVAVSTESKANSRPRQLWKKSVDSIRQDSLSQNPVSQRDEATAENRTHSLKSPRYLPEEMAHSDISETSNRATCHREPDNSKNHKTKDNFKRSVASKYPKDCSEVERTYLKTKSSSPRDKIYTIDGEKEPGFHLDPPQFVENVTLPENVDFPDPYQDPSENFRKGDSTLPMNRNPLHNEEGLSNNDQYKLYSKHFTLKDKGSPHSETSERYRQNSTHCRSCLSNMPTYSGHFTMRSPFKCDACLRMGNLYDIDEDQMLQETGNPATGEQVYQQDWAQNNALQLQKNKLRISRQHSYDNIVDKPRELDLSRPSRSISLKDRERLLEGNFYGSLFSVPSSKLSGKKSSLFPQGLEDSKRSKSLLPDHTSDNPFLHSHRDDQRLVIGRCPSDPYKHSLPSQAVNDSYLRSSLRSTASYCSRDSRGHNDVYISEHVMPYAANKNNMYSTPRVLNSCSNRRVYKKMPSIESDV
- Test Description: Assay 1: Cell-Based Assay (cytosolic calcium, positive allosteric modulation)
- Measurement Context: HEK293; scaled relative to 100 μM L-glutamate maximal response (100%) and 0 μM L-glutamate (0%); with 30 μM glycine and 300 nM L-glutamate; read-out: Max %
Property Measured: Emax (%)
Please state the figure in %; there is no need to write the unit.

Some entries whose results are on file:
>  <Given Smiles>
CCN(Cc1cc(=O)n2c(OC)cccc2n1)c1ccc(F)cc1

>  <Emax (%)>
117

$$$$
>  <Given Smiles>
CCNC(=O)c1cccc2nc(Cc3cccc(C#N)c3F)cc(=O)n12

>  <Emax (%)>
43

$$$$
>  <Given Smiles>
N#C[C@@H]1C[C@H]1c1cc(C(F)(F)F)cc2nc(Cn3nc(C(F)(F)F)cc3Cl)cc(=O)n12

>  <Emax (%)>
142

$$$$
>  <Given Smiles>
CCNC(=O)c1c(C)ccc2nc(Cc3cccc(C#N)c3F)cc(=O)n12

>  <Emax (%)>
65

$$$$
>  <Given Smiles>
CCN(Cc1cc(=O)n2cc(C)ccc2n1)c1ccc(F)cc1

>  <Emax (%)>
134

$$$$
>  <Given Smiles>
CC(=O)c1cccc2nc(Cn3nc(C(F)(F)F)cc3Cl)cc(=O)n12

>  <Emax (%)>
126

$$$$
>  <Given Smiles>
CNC(=O)c1c(C)ccc2nc(Cn3nc(C4CC4)cc3C(F)(F)F)cc(=O)n12

>  <Emax (%)>
101

$$$$

Now for the compound whose Emax we want.
Q. Report measured Emax; entry is `Cc1ccc2nc(Cn3nc(C(F)(F)F)cc3Cl)cc(=O)n2c1[C@H]1C[C@@H]1C#N`
A. 99
